Each entry below carries its recorded IC50.
target: DNA replication helicase (Human herpesvirus 1); test: Inhibition against DNA-Dependent GTPase activity of two-subunit recombinant HSV-1 helicase-primase
Sequence (P10189 whole entry, looked up): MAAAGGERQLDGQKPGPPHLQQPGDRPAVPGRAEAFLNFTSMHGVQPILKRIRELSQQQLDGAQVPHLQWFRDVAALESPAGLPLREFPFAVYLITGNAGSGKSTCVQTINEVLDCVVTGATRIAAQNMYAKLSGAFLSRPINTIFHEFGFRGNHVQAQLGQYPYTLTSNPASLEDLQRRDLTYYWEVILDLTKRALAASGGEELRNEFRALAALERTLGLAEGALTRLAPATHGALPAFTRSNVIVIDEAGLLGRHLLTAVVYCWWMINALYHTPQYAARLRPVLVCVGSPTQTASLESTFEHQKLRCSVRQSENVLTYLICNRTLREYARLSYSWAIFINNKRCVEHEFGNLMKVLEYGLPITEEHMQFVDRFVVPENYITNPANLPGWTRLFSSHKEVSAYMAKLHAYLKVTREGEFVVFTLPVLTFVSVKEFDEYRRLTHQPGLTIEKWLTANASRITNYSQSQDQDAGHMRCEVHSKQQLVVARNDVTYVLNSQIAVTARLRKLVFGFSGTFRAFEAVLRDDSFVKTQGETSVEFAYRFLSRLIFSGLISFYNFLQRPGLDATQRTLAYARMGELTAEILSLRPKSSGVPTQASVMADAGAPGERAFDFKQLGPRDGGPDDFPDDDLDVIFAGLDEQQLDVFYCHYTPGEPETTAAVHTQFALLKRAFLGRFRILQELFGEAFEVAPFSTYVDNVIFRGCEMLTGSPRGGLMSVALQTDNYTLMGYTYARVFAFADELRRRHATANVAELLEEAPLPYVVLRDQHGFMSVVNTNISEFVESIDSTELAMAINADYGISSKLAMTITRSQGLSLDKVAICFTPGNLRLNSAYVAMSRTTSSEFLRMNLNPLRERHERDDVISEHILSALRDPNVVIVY
observable: IC50

1. O=c1[nH]c(Nc2cc(Cl)cc(Cl)c2)nc2nc[nH]c12 : 910 µM
2. Nc1[nH]c(Nc2ccc(Cl)c(Cl)c2)nc2ncnc1-2 : 850 µM
3. Nc1nc(Nc2cc(Cl)cc(Cl)c2)cc(=O)[nH]1 : 770 µM
4. Oc1[nH]c(Nc2ccc(Cl)c(Cl)c2)nc2ncnc1-2 : 880 µM
5. Oc1cc(Nc2ccc(Cl)c(Cl)c2)nc(O)n1 : > 2000 µM
6. Nc1nc(Nc2cc(Cl)cc(Cl)c2)nc2nc[nH]c12 : 920 µM
7. Nc1nc(O)cc(Nc2ccc(Cl)c(Cl)c2)n1 : 850 µM
8. Oc1cc(Nc2cc(Cl)cc(Cl)c2)nc(O)n1 : > 2000 µM
